# Study target: T1, human interleukin-23 receptor (IL23R) (human, UniProt Q5VWK5 24-355, limits assumed)
# T1 construct: also called human IL23R
# T1 sequence (looked up): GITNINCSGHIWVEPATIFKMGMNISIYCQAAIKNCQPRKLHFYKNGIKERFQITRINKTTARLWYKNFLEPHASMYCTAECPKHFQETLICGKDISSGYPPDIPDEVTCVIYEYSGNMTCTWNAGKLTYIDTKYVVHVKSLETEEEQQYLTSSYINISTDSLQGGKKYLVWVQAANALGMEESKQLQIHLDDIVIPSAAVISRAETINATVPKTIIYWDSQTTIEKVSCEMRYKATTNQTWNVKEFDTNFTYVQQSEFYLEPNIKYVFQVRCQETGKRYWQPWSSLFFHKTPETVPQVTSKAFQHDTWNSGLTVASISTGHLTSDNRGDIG
# Method notes: SPR, scFv
Metric name: koff (s⁻¹)
# output: bare number, implied unit s⁻¹

[[record]]
binder = "Vκ1/VH4 consensus (uncapped), human IL23R specific scFv (scFv, scFv VL-linker-VH, made in E. coli; Vκ framework IV (uncapped, full consensus); also called Vκ1VH4 uncapped) scFv: DIQMTQSPSSLSASVGDRVTITCQASENIYSFLAWYQQKPGKAPKLLIYSASKLAAGVPSRFSGSGSGTDFTLTISSLQPEDFATYYCQQTNRYSNPDIYNVFGQGTKVEIKRGGGGSGGGGSGGGGSGGGGSQVQLQESGPGLVKPSETLSLTCTVSGIDFNSNYYMCWIRQPPGKGLEWIGCIYVGSHVNTYYANWAKGRVTISVDTSKNQFSLKLSSVTAADTAVYYCATSGSSVLYFKFWGQGTLVTVSS"
obs_value = 0.000176

[[record]]
binder = "Vκ3/VH1B consensus (uncapped), human IL23R specific scFv (scFv, scFv VL-linker-VH, made in E. coli; Vκ framework IV (uncapped, full consensus); also called Vκ3VH1B uncapped) scFv: DIVLTQSPATLSLSPGERATLSCQASENIYSFLAWYQQKPGQAPRLLIYSASKLAAGVPARFSGSGSGTDFTLTISSLEPEDFAVYYCQQTNRYSNPDIYNVFGQGTKVEIKRGGGGSGGGGSGGGGSGGGGSQVQLVQSGAEVKKPGASVKVSCKASGIDFNSNYYMCWVRQAPGQGLEWMGCIYVGSHVNTYYANWAKGRVTMTRDTSISTAYMELSSLRSEDTAVYYCATSGSSVLYFKFWGQGTLVTVSS"
obs_value = 0.000724

[[record]]
binder = "Vκ2/VH5 consensus λ-capped, human IL23R specific scFv (scFv, scFv VL-linker-VH, made in E. coli; also called Vκ2VH5 capped) scFv: DIVMTQSPLSLPVTPGEPASISCQASENIYSFLAWYLQKPGQSPQLLIYSASKLAAGVPDRFSGSGSGTDFTLKISRVEAEDVGVYYCQQTNRYSNPDIYNVFGGGTKLTVLGGGGGSGGGGSGGGGSGGGGSEVQLVQSGAEVKKPGESLKISCKGSGIDFNSNYYMCWVRQMPGKGLEWMGCIYVGSHVNTYYANWAKGQVTISADKSISTAYLQWSSLKASDTAMYYCATSGSSVLYFKFWGQGTLVTVSS"
obs_value = 0.000715

[[record]]
binder = "Vκ1/VH1A consensus (uncapped), human IL23R specific scFv (scFv, scFv VL-linker-VH, made in E. coli; Vκ framework IV (uncapped, full consensus); also called Vκ1VH1A uncapped) scFv: DIQMTQSPSSLSASVGDRVTITCQASENIYSFLAWYQQKPGKAPKLLIYSASKLAAGVPSRFSGSGSGTDFTLTISSLQPEDFATYYCQQTNRYSNPDIYNVFGQGTKVEIKRGGGGSGGGGSGGGGSGGGGSQVQLVQSGAEVKKPGSSVKVSCKASGIDFNSNYYMCWVRQAPGQGLEWMGCIYVGSHVNTYYANWAKGRVTITADESTSTAYMELSSLRSEDTAVYYCATSGSSVLYFKFWGQGTLVTVSS"
obs_value = 0.000128

[[record]]
binder = "Vκ2/VH4 consensus (uncapped), human IL23R specific scFv (scFv, scFv VL-linker-VH, made in E. coli; Vκ framework IV (uncapped, full consensus); also called Vκ2VH4 uncapped) scFv: DIVMTQSPLSLPVTPGEPASISCQASENIYSFLAWYLQKPGQSPQLLIYSASKLAAGVPDRFSGSGSGTDFTLKISRVEAEDVGVYYCQQTNRYSNPDIYNVFGQGTKVEIKRGGGGSGGGGSGGGGSGGGGSQVQLQESGPGLVKPSETLSLTCTVSGIDFNSNYYMCWIRQPPGKGLEWIGCIYVGSHVNTYYANWAKGRVTISVDTSKNQFSLKLSSVTAADTAVYYCATSGSSVLYFKFWGQGTLVTVSS"
obs_value = 0.000157


Next binder, koff to be filled in.
For Vκ2/VH3 consensus λ-capped, human IL23R specific scFv (scFv, scFv VL-linker-VH, made in E. coli; also called Vκ2VH3 capped) scFv: DIVMTQSPLSLPVTPGEPASISCQASENIYSFLAWYLQKPGQSPQLLIYSASKLAAGVPDRFSGSGSGTDFTLKISRVEAEDVGVYYCQQTNRYSNPDIYNVFGGGTKLTVLGGGGGSGGGGSGGGGSGGGGSEVQLVESGGGLVQPGGSLRLSCAASGIDFNSNYYMCWVRQAPGKGLEWVSCIYVGSHVNTYYANWAKGRFTISRDNSKNTLYLQMNSLRAEDTAVYYCATSGSSVLYFKFWGQGTLVTVSS the binder record lists koff as 7.77e-05

The measurements presented in this section are drawn from patent US20230242651A1.
